These entries and their values trace back to paper PMC12248599.

# Test system: Caco-2 cell monolayer
# run.description: Caco-2 monolayer transport (bioavailability) study, AB and BA directions
# Assay type: in vitro ADME, Homo sapiens
# reported.conditions: AB experiment, donor side, S2 (22 mg/mL GSE), 115 min
Marks after values point to notes of the source that are not given here.
# Apical Side 115 min per record follows

Answered examples (2):
molecule	study.target	value
O=c1c(OC2O[C@H](CO)[C@H](O)[C@H](O)[C@H]2O)c(-c2ccc(O)cc2)oc2cc(O)cc(O)c12 (stereo partly drawn) [K3Gal, kaempferol-3-galactoside]	Caco-2 cell monolayer	0.88 ± 0.02 ^d mg/L
O=C(/C=C/c1ccc(O)c(O)c1)O[C@@H](C(=O)O)[C@@H](O)C(=O)O [CA, caftaric acid]	Caco-2 cell monolayer	1.16 ± 0.02 ^d mg/L

Qu. What value of measured Apical Side 115 min is listed for OC[C@H]1O[C@@H](Oc2cc3c(O)cc(O)cc3[o+]c2-c2cc(O)c(O)c(O)c2)[C@H](O)[C@@H](O)[C@@H]1O [D3G, delphinidin-3-O-glucoside] ?
Ans. 4.05 ± 0.09 ^c mg/L

Qu. // repeat for COc1cc(-c2[o+]c3cc(O)cc(O)c3cc2O[C@@H]2O[C@H](CO)[C@@H](O)[C@H](O)[C@H]2O)cc(O)c1O [Pet3G, petunidin-3-O-glucoside] and report
Ans. 3.33 ± 0.09 ^c mg/L

Qu. // repeat for O=C(O)c1cc(O)c(O)c(O)c1 [GA, gallic acid] and report
Ans. 3.7 ± 0.3 ^d mg/L

Qu. // repeat for COc1cc(C(=O)O)cc(OC)c1O [SA, syringic acid] and report
Ans. 0.82 ± 0.02 ^d mg/L

Qu. // repeat for O=c1c(O[C@@H]2O[C@H](CO)[C@@H](O)[C@H](O)[C@H]2O)c(-c2ccc(O)c(O)c2)oc2cc(O)cc(O)c12 [Q3G, quercetin-3-glucoside] and report
Ans. 0.41 ± 0.01 ^d mg/L

Qu. // repeat for COc1cc(-c2[o+]c3cc(O)cc(O)c3cc2O[C@@H]2O[C@H](CO)[C@@H](O)[C@H](O)[C@H]2O)cc(OC)c1O [M3G, malvidin-3-O-glucoside] and report
Ans. 7.2 ± 0.9 ^d mg/L

Qu. // repeat for O=c1c(O[C@@H]2O[C@H](CO)[C@@H](O)[C@H](O)[C@H]2O)c(-c2ccc(O)cc2)oc2cc(O)cc(O)c12 [K3G, kaempferol-3-glucoside] and report
Ans. 10.6 ± 0.23 ^c mg/L

###

# Test system: Caco-2 cell monolayer
# run.description: Caco-2 monolayer transport (bioavailability) study, AB and BA directions
# Type: in vitro ADME, Homo sapiens
# reported.conditions: AB experiment, donor side, S2 (22 mg/mL GSE), 0 min
Marks after values point to notes of the source that are not given here.
observed.property: Apical Side 0 min

Answered examples (4):
compound	Apical Side 0 min
O=C(O)c1cc(O)c(O)c(O)c1 [GA, gallic acid]	5.9 ± 0.3 ^a mg/L
COc1cc(-c2[o+]c3cc(O)cc(O)c3cc2O[C@@H]2O[C@H](CO)[C@@H](O)[C@H](O)[C@H]2O)cc(OC)c1O [M3G, malvidin-3-O-glucoside]	14 ± 1 ^a mg/L
O=c1c(OC2O[C@H](CO)[C@H](O)[C@H](O)[C@H]2O)c(-c2ccc(O)cc2)oc2cc(O)cc(O)c12 (stereo partly drawn) [K3Gal, kaempferol-3-galactoside]	1.23 ± 0.02 ^a mg/L
O=c1c(O[C@@H]2O[C@H](CO)[C@@H](O)[C@H](O)[C@H]2O)c(-c2ccc(O)c(O)c2)oc2cc(O)cc(O)c12 [Q3G, quercetin-3-glucoside]	0.61 ± 0.01 ^a mg/L

Qu. What value of measured Apical Side 0 min is listed for COc1cc(-c2[o+]c3cc(O)cc(O)c3cc2O[C@@H]2O[C@H](CO)[C@@H](O)[C@H](O)[C@H]2O)cc(O)c1O [Pet3G, petunidin-3-O-glucoside] ?
Ans. 4.4 ± 0.2 ^a mg/L

Qu. // repeat for OC[C@H]1O[C@@H](Oc2cc3c(O)cc(O)cc3[o+]c2-c2cc(O)c(O)c(O)c2)[C@H](O)[C@@H](O)[C@@H]1O [D3G, delphinidin-3-O-glucoside] and report
Ans. 4.7 ± 0.1 ^a mg/L
